System: Escherichia coli TOP10
Assay: shrunken log2 fold change of peptide-encoding DNA abundance (4.5 h post-induction vs induction); higher = less antimicrobial activity (less host growth inhibition)
Conditions: time post-induction: 4.5 h; library: site-saturation at positions 5, 18, 19, 20
Please use the following shrunken log2 fold change ranges when assigning a class: label 0 (below -0.06), label 1 (-0.06 to below 0.09), label 2 (0.09 or more)

Illustrative cases are given below, each with its answer.
RRIRNRPPRLPRPRPRPRGWPRP = label 2
RRIRDRPPRLPRPRPRPADYPRP = label 1
RRIRGRPPRLPRPRPRPHIAPRP = label 2
RRIRRRPPRLPRPRPRPPYKPRP = label 2
RRIRIRPPRLPRPRPRPTFIPRP = label 0
RRIRSRPPRLPRPRPRPQFSPRP = label 0

Q. Class (by measured shrunken log2 fold change) for "RRIRNRPPRLPRPRPRPARGPRP"
A. label 2

Q. Just checking, what class would you give "RRIRNRPPRLPRPRPRPELWPRP" here?
A. label 2

Q. Just checking, what class would you give "RRIRPRPPRLPRPRPRPPYFPRP" here?
A. label 1

Q. Into which category would you place "RRIRVRPPRLPRPRPRPSMWPRP" ?
A. label 0

Q. Into which bin does this sequence go? "RRIRVRPPRLPRPRPRPCSQPRP"
A. label 1

Q. Class? Entry: "RRIRFRPPRLPRPRPRPQLKPRP"
A. label 1

---

Tested on: Escherichia coli TOP10
Assay: shrunken log2 fold change of peptide-encoding DNA abundance (4.5 h post-induction vs induction); higher = less antimicrobial activity (less host growth inhibition)
Conditions: time post-induction: 4.5 h; library: site-saturation at positions 5, 18, 19, 20
Answer no (0) if shrunken log2 fold change is under 0.09, and yes (1) if it is 0.09 or more.

Please review the entries below; each comes with its answer.
RRIRERPPRLPRPRPRPTCLPRP = no (0)
RRIRHRPPRLPRPRPRPIVGPRP = no (0)
RRIRLRPPRLPRPRPRPPLCPRP = yes (1)
RRIRPRPPRLPRPRPRPPFLPRP = yes (1)
RRIRERPPRLPRPRPRPEIYPRP = no (0)
RRIRARPPRLPRPRPRPPINPRP = no (0)
RRIRSRPPRLPRPRPRPWNVPRP = no (0)
RRIRKRPPRLPRPRPRPPNDPRP = yes (1)
RRIRKRPPRLPRPRPRPDAHPRP = yes (1)
RRIRMRPPRLPRPRPRPQYNPRP = no (0)

Q. Could you tell me if the measured shrunken log2 fold change of "RRIRSRPPRLPRPRPRPDNMPRP" reaches 0.09 or more?
A. no (0)

Q. I'd appreciate it if you could say whether "RRIRLRPPRLPRPRPRPDSLPRP" has shrunken log2 fold change at least equal to 0.09.
A. no (0)

Q. Please indicate if the recorded shrunken log2 fold change for "RRIRDRPPRLPRPRPRPVALPRP" meets or exceeds 0.09.
A. yes (1)

Q. Is shrunken log2 fold change for "RRIRIRPPRLPRPRPRPWMQPRP" at or above 0.09?
A. no (0)

---

Test system: Escherichia coli TOP10;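 also: peptides expressed intracellularly from a pBAD plasmid library in pooled LB shake-flask culture, induced with 0.3% L-arabinose, DNA abundance read by NGS, three biological replicates, DESeq2 with apeglm shrinkage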
Assay: shrunken log2 fold change of peptide-encoding DNA abundance (4.5 h post-induction vs induction); higher = less antimicrobial activity (less host growth inhibition)
Conditions: time post-induction: 4.5 h; library: site-saturation at positions 5, 18, 19, 20
Use -0.1 as the dividing line for shrunken log2 fold change, with the line itself on the true side and lower values as false.

RRIRKRPPRLPRPRPRPWYKPRP = true
RRIRFRPPRLPRPRPRPEGSPRP = false
RRIRFRPPRLPRPRPRPMHTPRP = true
RRIRFRPPRLPRPRPRPRQIPRP = true
RRIRCRPPRLPRPRPRPDTCPRP = true
RRIRPRPPRLPRPRPRPRVDPRP = true
RRIRARPPRLPRPRPRPMHVPRP = true
RRIRKRPPRLPRPRPRPMCNPRP = true
RRIRDRPPRLPRPRPRPTSLPRP = true
RRIRQRPPRLPRPRPRPQQYPRP = true

Q. Has "RRIRIRPPRLPRPRPRPCNQPRP" a recorded shrunken log2 fold change greater than or equal to -0.1?
A. false

Q. Quick check: does "RRIRVRPPRLPRPRPRPGTTPRP" have shrunken log2 fold change greater than or equal to -0.1?
A. false

Q. Test whether the sequence "RRIRQRPPRLPRPRPRPKTTPRP" records shrunken log2 fold change of -0.1 or higher.
A. false

Q. For this sequence, is measured shrunken log2 fold change -0.1 or higher? "RRIRDRPPRLPRPRPRPYILPRP"
A. false

Q. API: above_or_equal(metric=shrunken log2 fold change, cutoff=-0.1) for item "RRIRRRPPRLPRPRPRPWNNPRP"
A. false
